# reported remaining at 1 h; entries follow
test: Stability of compound in human hepatocytes assessed as parent compound remaining incubated for 60 mins; type: ADME, cell-based, Hepatocyte; details: read-out: Stability
reportedMetric: remaining at 1 h (%)

{"columns": ["substanceSmiles", "reportedMetric", "reportedMeasurement"],
 "data": [
  ["O=C1CCC(=O)N1Cc1cc2nccc(-c3cc(Cl)cc4c3O[C@@H](c3ocnc3CN3CCC3)C4)c2s1", "remaining at 1 h", 14],
  ["O=C([C@H]1Cc2cc(Cl)cc(-c3ccnc4cc(CN5C(=O)CCC5=O)sc34)c2O1)N1CCNCC1", "remaining at 1 h", 37],
  ["Cn1nc2c(c1[C@H]1Cc3cc(Cl)cc(-c4ccnc5cc(CN6C(=O)CCC6=O)sc45)c3O1)CNCC2", "remaining at 1 h", 63],
  ["O=C1CCC(=O)N1Cc1cc2nccc(-c3cc(Cl)cc4c3O[C@@H](c3onc5c3CNCC5)C4)c2s1", "remaining at 1 h", 26]
]}
